- Tested system: HLA-A*02:06
- Test method notes: IEDB peptide-MHC binding, purified MHC/direct/fluorescence; filed as Kd, often an IC50 or EC50 that approximates it; bounds were set here for any values at or beyond the usual limits of such assays
- Condition description: source organism: Influenza A virus(A/swine/Shandong/fNY/2003(H9N2))
pKd: −log10 of the molar value.
Readout label: pKd

Task: Supply reported pKd belonging to this sequence: VSPLAVTWW
Output: ≤ 4.70

----------
- Tested system: HLA-B*54:01
- Test method notes: IEDB peptide-MHC binding, purified MHC/competitive/radioactivity; filed as Kd, often an IC50 or EC50 that approximates it; bounds were set here for any values at or beyond the usual limits of such assays
- Condition description: source organism: Variola virus
Readout label: pKd
pKd here is simply -log10 of the concentration when that concentration is written in mol/L.

Task: // Input: KPKPAVRYAI . Output its pKd only.
Output: 4.90

----------
- Tested system: HLA-B*27:05
- Test method notes: IEDB peptide-MHC binding, purified MHC/direct/fluorescence; filed as Kd, often an IC50 or EC50 that approximates it; bounds were set here for any values at or beyond the usual limits of such assays
- Condition description: source organism: Influenza A virus (A/swine/Miyagi/5/2003(H1N2))
Readout label: Kd

Task: Look up and report measured Kd for this entry: GTEKLTITY
Output: ≥ 20 µM

----------
- Tested system: HLA-A*02:12
- Test method notes: IEDB peptide-MHC binding, purified MHC/competitive/fluorescence; filed as Kd, often an IC50 or EC50 that approximates it; bounds were set here for any values at or beyond the usual limits of such assays
- Condition description: source organism: Escherichia coli E22
Readout label: Kd

Task: For YQTYVSPGA , write its Kd.
Output: ≥ 20 µM

----------
- Tested system: HLA-A*31:01
- Test method notes: IEDB peptide-MHC binding, purified MHC/competitive/radioactivity; filed as Kd, often an IC50 or EC50 that approximates it; bounds were set here for any values at or beyond the usual limits of such assays
- Condition description: source organism: SARS coronavirus Tor2
Readout label: pKd
// scale note: pKd = -log10(conc_M); give the bare number

Consider the reported pKd for these sequences:
1. AINSVPWSK	5.93
2. GSFCTQLNR	7.29
3. ALILAYSNK	5.42
4. SAGFSLWIYK	7.28
5. VVNARLRAK	6.70

Task: Name the recorded pKd of the sequence listed here: YMSALNHTK
Output: 6.19

Task: Name the recorded pKd of the sequence listed here: LLFADINGK
Output: 5.59

Task: Using known records, supply pKd for SVKTQFNYFK
Output: 7.62

Task: Report pKd, nothing else, for this sequence: TVKPGNFNK
Output: 7.38

Task: Give a short answer stating reported pKd for GLLATNNVFR .
Output: 6.31

Task: For the sequence TSRTLSYYK , give its measured pKd value.
Output: 6.75

----------
- Tested system: HLA-B*15:17
- Test method notes: IEDB peptide-MHC binding, purified MHC/direct/fluorescence; filed as Kd, often an IC50 or EC50 that approximates it; bounds were set here for any values at or beyond the usual limits of such assays
- Condition description: source organism: Camelpox virus M-96
Readout label: pKd
Friendly reminder that pKd comes from taking -log10 of the concentration in mol/L.

Worked cases, answers included:
1) KSTSPTRTW	8.62
2) EIKDRILSY	6.20

Task: Determine from records and report pKd for DILASIIDY
Output: 6.52

----------
- Tested system: HLA-A*11:01
- Test method notes: IEDB peptide-MHC binding, purified MHC/direct/fluorescence; filed as Kd, often an IC50 or EC50 that approximates it; bounds were set here for any values at or beyond the usual limits of such assays
- Condition description: source organism: West Nile virus
Readout label: pKd
The scale used: pKd is minus the common logarithm of the concentration in molar units.

Task: Please indicate pKd recorded for KVLCPYMPK
Output: 8.43

----------
- Tested system: HLA-A*31:01
- Test method notes: IEDB peptide-MHC binding, purified MHC/competitive/radioactivity; filed as Kd, often an IC50 or EC50 that approximates it; bounds were set here for any values at or beyond the usual limits of such assays
- Condition description: source organism: Vaccinia virus Copenhagen
Readout label: Kd (nM)
Please state the figure in nM; there is no need to write the unit.

Task: Report measured Kd; entry is FILGIIITV
Output: 1170

----------
- Tested system: HLA-A*03:01
- Test method notes: IEDB peptide-MHC binding, purified MHC/competitive/radioactivity; filed as Kd, often an IC50 or EC50 that approximates it; bounds were set here for any values at or beyond the usual limits of such assays
- Condition description: source organism: Vaccinia virus Copenhagen
Readout label: pKd
Scale explanation: pKd corresponds to minus log10 of a concentration expressed in moles per litre.

Task: Write down pKd measured for item FILGIIITV
Output: 5.82

----------
- Tested system: HLA-C*12:03
- Test method notes: IEDB peptide-MHC binding, purified MHC/direct/fluorescence; filed as Kd, often an IC50 or EC50 that approximates it; bounds were set here for any values at or beyond the usual limits of such assays
- Condition description: source organism: Yellow fever virus
Readout label: Kd (nM)
Respond numerically; units are nM and should not be typed.

Task: Given the sequence YVIRDLAAM , write its reported Kd.
Output: 23

----------
- Tested system: HLA-B*40:02
- Test method notes: IEDB peptide-MHC binding, cellular MHC/competitive/fluorescence; bounds were set here for any values at or beyond the usual limits of such assays
- Condition description: source organism: Homo sapiens
Readout label: IC50 (µM)
Unit µM implied. Number only.

Task: Given the sequence KEQSPEPHL , write its reported IC50.
Output: 1.9

----------
- Tested system: HLA-C*14:02
- Test method notes: IEDB peptide-MHC binding, purified MHC/direct/fluorescence; filed as Kd, often an IC50 or EC50 that approximates it; bounds were set here for any values at or beyond the usual limits of such assays
- Condition description: source organism: Zaire ebolavirus
Readout label: Kd
Respond with the figure and its unit, in that order.

Task: # return recorded Kd for entry KVYWAGIEF
Output: 18 nM

----------
- Tested system: HLA-B*27:03
- Test method notes: IEDB peptide-MHC binding, purified MHC/competitive/fluorescence; filed as Kd, often an IC50 or EC50 that approximates it; bounds were set here for any values at or beyond the usual limits of such assays
- Condition description: source organism: Entamoeba dispar SAW760
Readout label: Kd

Task: Give the reported Kd for this sequence. LMTHTWHAK
Output: ≥ 20 µM

----------
- Tested system: HLA-A*02:19
- Test method notes: IEDB peptide-MHC binding, purified MHC/competitive/fluorescence; filed as Kd, often an IC50 or EC50 that approximates it; bounds were set here for any values at or beyond the usual limits of such assays
- Condition description: source organism: Entamoeba histolytica HM-1:IMSS
Readout label: Kd

Task: Give the reported value of Kd for this record: IGKMNKHYK
Output: ≥ 20 µM

----------
- Tested system: HLA-A*23:01
- Test method notes: IEDB peptide-MHC binding, purified MHC/competitive/radioactivity; filed as Kd, often an IC50 or EC50 that approximates it; bounds were set here for any values at or beyond the usual limits of such assays
- Condition description: source organism: Mammarenavirus brazilense
Readout label: pKd
The meaning of pKd here: minus log10 of the concentration in molar units.

1. LWEKLCYLI	6.58

Here is another sequence to look at.
Task: # return recorded pKd for entry PYLKATKQI
Output: 6.88

----------
- Tested system: HLA-A*68:02
- Test method notes: IEDB peptide-MHC binding, purified MHC/competitive/fluorescence; filed as Kd, often an IC50 or EC50 that approximates it; bounds were set here for any values at or beyond the usual limits of such assays
- Condition description: source organism: Orthomarburgvirus marburgense
pKd: −log10 of the molar value.
Readout label: pKd

Task: For the sequence GIADFIIFK , give its reported pKd.
Output: ≤ 4.70

----------
- Tested system: HLA-A*26:01
- Test method notes: IEDB peptide-MHC binding, purified MHC/direct/fluorescence; filed as Kd, often an IC50 or EC50 that approximates it; bounds were set here for any values at or beyond the usual limits of such assays
- Condition description: source organism: Coxiella burnetii
pKd: −log10 of the molar value.
Readout label: pKd

Task: Give the value of pKd reported for the following: VMKRNFIDF
Output: ≤ 4.70

----------
- Tested system: HLA-B*57:01
- Test method notes: IEDB peptide-MHC binding, purified MHC/competitive/radioactivity; filed as Kd, often an IC50 or EC50 that approximates it; bounds were set here for any values at or beyond the usual limits of such assays
- Condition description: source organism: Dengue virus 2 Jamaica/1409/1983
Listing of recorded Kd by entry.
# number only, unit nM dropped from output

Answered examples (2):
1) ISRMLINRF	15.9
2) RSWNSGHEW	2.05

Task: For ISQGAGWSL , write its Kd.
Output: 472
